meta.source: patent US12624096B2

Listed next: entries and their corresponding Kd.
- SUBJECT_OF_TEST: dGA (Homo sapiens, UniProt P10636)
- Sequence (P10636 614-707): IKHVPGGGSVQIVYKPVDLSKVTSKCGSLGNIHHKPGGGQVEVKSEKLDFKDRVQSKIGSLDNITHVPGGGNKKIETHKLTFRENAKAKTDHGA
- PROTOCOL_DESCRIPTION: Biacore X100 SPR, scAb captured via anti-HuCk, dGA as analyte
- Assay type: binding
- STATED_CONDITIONS: dissociation rate

# MOLECULE, Kd
data = [
    ("S1D12: anti-tau clone from immunised sheep, SEQ ID NO: 32 (protein, S1D12 amino acid sequence) scFv: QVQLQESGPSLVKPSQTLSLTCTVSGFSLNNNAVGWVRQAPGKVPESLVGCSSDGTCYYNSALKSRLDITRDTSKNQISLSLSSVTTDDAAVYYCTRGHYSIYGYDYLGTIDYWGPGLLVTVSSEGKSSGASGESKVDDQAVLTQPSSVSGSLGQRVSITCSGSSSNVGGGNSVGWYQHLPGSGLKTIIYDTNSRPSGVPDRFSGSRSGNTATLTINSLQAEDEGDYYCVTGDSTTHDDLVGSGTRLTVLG", "0.000418 s⁻¹"),
    ("S1E12: anti-tau clone, SEQ ID NO: 218 (protein, S1E12 amino acid sequence) scFv: QVQLQESGPSLVKPSQTLSLTCTVSGFSLGSNSVGWVRQAPGKAPEWVAGIDTDGEEGYNPALNSRLSITRDTSKSQVSLSLSSVTSEDTAVYYCGRSYRADGLAYGYVQAIDYWGPGLLVTVSSEGKSSGASGESKVDDRVVRTQPSSVSGSLGQRVSITCSGSFIGISSVGWFQQLPGSGLRTIIVASDGRPSGVPDRFSMSKSGNTATLTISSLQAEDEADYFCGSSDRTQYTGVFGSGTRLTVLG", "0.001627 s⁻¹"),
    ("S1G2: anti-tau clone, SEQ ID NO: 81 (protein, S1G2 amino acid sequence) scFv: QVQLQESGPSLVKPSQTLSLTCTVSGFSLTSNSVGWVRQAPGKAPEWVAGIDTDGEEGYNPALNSRLSITRDTSKSQVSLSLSSVTSEDTAVYYCGRSYRADGLAYGYVQAIDYWGPGLLVTVSSEGKSSGASGESKVDDQAVVTQPSSVSGSLGQRVSITCSGSFIGISSVGWFQQLPGSGLRTIIVASDGRPSGVPDRFSMSKSGNTATLTISSLQAEDEADYFCGSSDRTPYTGVFGSGTRLTVLG", "0.0003499 s⁻¹"),
]
